Measured inhibition at 1 ppm values are reported for all entries that follow.
# Tested on: Gaeumannomyces graminis var. tritici (Ggt)
# PROCEDURE DETAILS: In vitro Assay: mycelial growth of Ggt on minimal media agar plates containing test compound
# Assay type: cell-based
# CONDITION DETAILS: Gaeumannomyces graminis; 1 ppm in minimal media agar; dark, 19-20° C., 4 to 5 days; diameter of mycelial growth; read-out: In vitro (ppm) 1, Percent Inhibition
QUANTITY: inhibition at 1 ppm (%)

[[record]]
sample_smiles = "CCN(CC)C(=O)c1c([Si](C)(C)C)ccc(Cl)c1Cl"
quantity = "inhibition at 1 ppm"
numeric_result = 66

[[record]]
sample_smiles = "CCN(C)C(=O)c1c(Cl)cccc1N(C)C(C)(C)C"
quantity = "inhibition at 1 ppm"
numeric_result = 13

[[record]]
sample_smiles = "CCNC(=O)c1c(F)cccc1-c1ccccc1C"
quantity = "inhibition at 1 ppm"
numeric_result = 63

[[record]]
sample_smiles = "CCNC(=O)c1c([Si](C)(C)C)sc(C)c1C"
quantity = "inhibition at 1 ppm"
numeric_result = 100

[[record]]
sample_smiles = "CCN(CC)C(=O)c1c(CF)ccc(F)c1[Si](C)(C)C"
quantity = "inhibition at 1 ppm"
numeric_result = 81


###

Reported inhibition at 0.1 ppm values are given for each entry in this list.
# Test system: Gaeumannomyces graminis var. tritici (Ggt)
# PROCEDURE DETAILS: In vitro Assay: mycelial growth of Ggt on minimal media agar plates containing test compound
# Assay type: cell-based
# CONDITION DETAILS: Gaeumannomyces graminis; 0.1 ppm in minimal media agar; dark, 19-20° C., 4 to 5 days; diameter of mycelial growth; read-out: In vitro (ppm) 0.1, Percent Inhibition
QUANTITY: inhibition at 0.1 ppm (%)

[[record]]
sample_smiles = "CCOCCN(CC)C(=O)c1c(Cl)cccc1[Si](C)(C)C"
target_system = "Gaeumannomyces graminis var. tritici (Ggt)"
output_unit = "%"
limit_operator = "="
numeric_result = 4

[[record]]
sample_smiles = "C[Si](C)(C)c1cccc(Cl)c1C(=O)NCCCCl"
target_system = "Gaeumannomyces graminis var. tritici (Ggt)"
output_unit = "%"
limit_operator = "<"
numeric_result = 0

[[record]]
sample_smiles = "CCNC(=O)c1c([Si](C)(C)C)ccc(Cl)c1Cl"
target_system = "Gaeumannomyces graminis var. tritici (Ggt)"
output_unit = "%"
limit_operator = "="
numeric_result = 79

[[record]]
sample_smiles = "CCOc1ccccc1NC(=O)c1c(Cl)cccc1[Si](C)(C)C"
target_system = "Gaeumannomyces graminis var. tritici (Ggt)"
output_unit = "%"
limit_operator = "="
numeric_result = 7

[[record]]
sample_smiles = "C/C=C/NC(=O)c1c(Cl)cccc1[Si](C)(C)C"
target_system = "Gaeumannomyces graminis var. tritici (Ggt)"
output_unit = "%"
limit_operator = "<"
numeric_result = 0


###

# Test system: Gaeumannomyces graminis var. tritici (Ggt)
# PROCEDURE DETAILS: In vitro Assay: mycelial growth of Ggt on minimal media agar plates containing test compound
# Type: cell-based
# CONDITION DETAILS: Gaeumannomyces graminis; 0.1 ppm in minimal media agar; dark, 19-20° C., 4 to 5 days; diameter of mycelial growth; read-out: In vitro (ppm) 0.1, Percent Inhibition
QUANTITY: inhibition at 0.1 ppm (%)

[[record]]
sample_smiles = "CCN(CC)C(=O)c1c(C)ccc(F)c1[Si](C)(C)C"
quantity = "inhibition at 0.1 ppm"
output_unit = "%"
limit_operator = "="
numeric_result = 6

[[record]]
sample_smiles = "CCNC(=O)c1c([Si](C)(C)C)sc(C)c1C"
quantity = "inhibition at 0.1 ppm"
output_unit = "%"
limit_operator = "="
numeric_result = 95

[[record]]
sample_smiles = "CCN(CC)C(=O)c1c(I)ccc(F)c1[Si](C)(C)C"
quantity = "inhibition at 0.1 ppm"
output_unit = "%"
limit_operator = "<"
numeric_result = 0

[[record]]
sample_smiles = "CCNC(=O)c1c([Si](C)(C)C)ccc(S(C)(=O)=O)c1Cl"
quantity = "inhibition at 0.1 ppm"
output_unit = "%"
limit_operator = "<"
numeric_result = 0

[[record]]
sample_smiles = "CCN(CC)C(=O)c1sccc1[Si](C)(C)C"
quantity = "inhibition at 0.1 ppm"
output_unit = "%"
limit_operator = "<"
numeric_result = 0

[[record]]
sample_smiles = "CCN(CSC)C(=O)c1c(Cl)cccc1[Si](C)(C)C"
quantity = "inhibition at 0.1 ppm"
output_unit = "%"
limit_operator = "<"
numeric_result = 0

[[record]]
sample_smiles = "C[Si](C)(C)c1cccc(Cl)c1C(=O)NCc1ccccn1"
quantity = "inhibition at 0.1 ppm"
output_unit = "%"
limit_operator = "="
numeric_result = 22

[[record]]
sample_smiles = "CCNC(=O)c1c([Si](C)(C)C)ccc([N+](=O)[O-])c1Cl"
quantity = "inhibition at 0.1 ppm"
output_unit = "%"
limit_operator = "="
numeric_result = 25

[[record]]
sample_smiles = "CCNC(=O)c1c(Cl)cc(C(C)(C)C)cc1[Si](C)(C)C"
quantity = "inhibition at 0.1 ppm"
output_unit = "%"
limit_operator = "="
numeric_result = 3

[[record]]
sample_smiles = "CCNC(=O)c1c(Cl)cccc1[Si](C)(C)CCl"
quantity = "inhibition at 0.1 ppm"
output_unit = "%"
limit_operator = "="
numeric_result = 100


###

# System: Gaeumannomyces graminis var. tritici (Ggt)
# PROCEDURE DETAILS: In vitro Assay: mycelial growth of Ggt on minimal media agar plates containing test compound
# Type: cell-based
# CONDITION DETAILS: Gaeumannomyces graminis; 1 ppm in minimal media agar; dark, 19-20° C., 4 to 5 days; diameter of mycelial growth; read-out: In vitro (ppm) 1, Percent Inhibition
Measured inhibition at 1 ppm, listed per entry.
QUANTITY: inhibition at 1 ppm (%)

[[record]]
compound = "C[Si](C)(C)c1cccc(Cl)c1C(=O)NCc1cccs1"
limit_operator = "="
numeric_result = 36

[[record]]
compound = "CCNC(=O)c1c(F)cccc1[Si](C)(C)C"
limit_operator = "="
numeric_result = 94

[[record]]
compound = "C[Si](C)(C)c1cc(Cl)sc1C(=O)NCCO"
limit_operator = "<"
numeric_result = 0

[[record]]
compound = "CCNC(=O)c1cc([Si](C)(C)C)sc1[Si](C)(C)C"
limit_operator = "="
numeric_result = 91

[[record]]
compound = "CCNC(=O)c1c(C)cccc1C(C)(C)C"
limit_operator = "="
numeric_result = 97

[[record]]
compound = "CCN(COC)C(=O)c1c(Cl)cccc1[Si](C)(C)C"
limit_operator = "="
numeric_result = 11

[[record]]
compound = "C[Si](C)(C)c1cccc(Cl)c1C(=O)Nc1ccccc1[N+](=O)[O-]"
limit_operator = "="
numeric_result = 63

[[record]]
compound = "C[Si](C)(C)c1cccc(Cl)c1C(=O)NCC#N"
limit_operator = "<"
numeric_result = 0

[[record]]
compound = "CCNC(=O)c1ccncc1[Si](C)(C)C"
limit_operator = "<"
numeric_result = 0

[[record]]
compound = "CCNC(=O)c1c(Cl)cc(C(C)(C)C)cc1[Si](C)(C)C"
limit_operator = "<"
numeric_result = 0

[[record]]
compound = "CCc1ccc([Si](C)(C)C)c(C(=O)N(CC)CC)c1Cl"
limit_operator = "="
numeric_result = 7

[[record]]
compound = "C=CCNC(=O)NC(=O)c1c(Cl)cccc1[Si](C)(C)C"
limit_operator = "="
numeric_result = 76

[[record]]
compound = "CCN(COC)C(=O)c1c(C)cccc1[Si](C)(C)C"
limit_operator = "="
numeric_result = 21

[[record]]
compound = "CC(CO)NC(=O)c1c(Cl)cccc1[Si](C)(C)C (centres unmarked)"
limit_operator = "<"
numeric_result = 0

[[record]]
compound = "CCN(CC)C(=O)c1cccc(F)c1[Si](C)(C)C(C)(C)C"
limit_operator = "<"
numeric_result = 0

[[record]]
compound = "CCN(CC)C(=O)c1c(C(F)(F)F)ccc(C(F)(F)F)c1[Si](C)(C)C"
limit_operator = "="
numeric_result = 3

[[record]]
compound = "C=C[Si](C)(C)c1cccc(Cl)c1C(=O)NCC"
limit_operator = "="
numeric_result = 100

[[record]]
compound = "CCNC(=O)c1sc(I)cc1[Si](C)(C)C"
limit_operator = "="
numeric_result = 23

[[record]]
compound = "CCN(CC)C(=O)c1c(Cl)cccc1[Si](C)(C)c1ccccc1"
limit_operator = "="
numeric_result = 19

[[record]]
compound = "CCNC(=O)c1c(-c2ccccc2)cccc1[Si](C)(C)C"
limit_operator = "="
numeric_result = 46


###

# System: Gaeumannomyces graminis var. tritici (Ggt)
# PROCEDURE DETAILS: In vitro Assay: mycelial growth of Ggt on minimal media agar plates containing test compound
# Type: cell-based
# CONDITION DETAILS: Gaeumannomyces graminis; 0.1 ppm in minimal media agar; dark, 19-20° C., 4 to 5 days; diameter of mycelial growth; read-out: In vitro (ppm) 0.1, Percent Inhibition
# Description: The test compounds (0.25 mL of an appropriate stock solution in acetone) are incorporated into 25 mL minimal media agar [(prepared by autoclaving a solution of 17.5 g Czapek Dox broth (Difco), 7.5 g purified agar or Bacto-agar (Difco), and 500 mL distilled/deionized water, and then adding 50 μL of 1 mg/mL thiamine hydrochloride and 50 μL of 1 mg/mL biotin in 5% ethanol] and plates are prepared. […]
QUANTITY: inhibition at 0.1 ppm (%)

[[record]]
compound = "CCNC(=O)c1c([Si](C)(C)C)ccc(/C=C/[N+](=O)[O-])c1Cl"
quantity = "inhibition at 0.1 ppm"
limit_operator = "="
numeric_result = 13

[[record]]
compound = "C[Si](C)(C)c1cccc(Cl)c1NC(=O)C(Cl)(Cl)Cl"
quantity = "inhibition at 0.1 ppm"
limit_operator = "="
numeric_result = 35

[[record]]
compound = "COc1cccc(CNC(=O)c2c(Cl)cccc2[Si](C)(C)C)c1"
quantity = "inhibition at 0.1 ppm"
limit_operator = "="
numeric_result = 11

[[record]]
compound = "CCNC(=O)c1ccccc1OC(C)(C)C [Example 247, N-Ethyl-2-(1,1-dimethylethoxy)benzamide]"
quantity = "inhibition at 0.1 ppm"
limit_operator = "<"
numeric_result = 0

[[record]]
compound = "CCNC(=O)c1c(F)cccc1CC(C)(C)C"
quantity = "inhibition at 0.1 ppm"
limit_operator = "<"
numeric_result = 0

[[record]]
compound = "CCNC(=O)c1c(Cl)cccc1N(C)C(C)(C)C"
quantity = "inhibition at 0.1 ppm"
limit_operator = "="
numeric_result = 24

[[record]]
compound = "C[Si](C)(C)c1cccc(Cl)c1C(=O)NC1CCCCC1"
quantity = "inhibition at 0.1 ppm"
limit_operator = "="
numeric_result = 9

[[record]]
compound = "C[Si](C)(C)c1cccc(Cl)c1C(=O)NCc1cccc([N+](=O)[O-])c1"
quantity = "inhibition at 0.1 ppm"
limit_operator = "="
numeric_result = 19

[[record]]
compound = "CCN(C)C(=O)c1c(Cl)cccc1[Si](C)(C)C"
quantity = "inhibition at 0.1 ppm"
limit_operator = "="
numeric_result = 13

[[record]]
compound = "C#CCNC(=O)c1c(Br)cccc1[Si](C)(C)C"
quantity = "inhibition at 0.1 ppm"
limit_operator = "="
numeric_result = 86

[[record]]
compound = "CCN(CC)C(=O)c1c(C(=O)OC)ccc(F)c1[Si](C)(C)C"
quantity = "inhibition at 0.1 ppm"
limit_operator = "<"
numeric_result = 0

[[record]]
compound = "CCN(CC)C(=S)c1c(C)ccc(F)c1[Si](C)(C)C"
quantity = "inhibition at 0.1 ppm"
limit_operator = "="
numeric_result = 9

[[record]]
compound = "CCNC(=O)c1c(Cl)cccc1[Si](C)(C)CC"
quantity = "inhibition at 0.1 ppm"
limit_operator = "="
numeric_result = 77

[[record]]
compound = "CCNC(=O)c1c([Si](C)(C)C)ccc(C#N)c1Cl"
quantity = "inhibition at 0.1 ppm"
limit_operator = "<"
numeric_result = 0

[[record]]
compound = "CCNC(=O)c1c(Cl)ccc(N(C)C)c1[Si](C)(C)C"
quantity = "inhibition at 0.1 ppm"
limit_operator = "="
numeric_result = 44

[[record]]
compound = "CCCCCCCC[Si](C)(C)c1cccc(Cl)c1C(=O)NCC"
quantity = "inhibition at 0.1 ppm"
limit_operator = "="
numeric_result = 30

[[record]]
compound = "CCNC(=O)c1sc(Br)cc1[Si](C)(C)C"
quantity = "inhibition at 0.1 ppm"
limit_operator = "="
numeric_result = 21

[[record]]
compound = "CCN(CC)C(=O)c1c([Si](C)(C)C)ccc(Cl)c1Cl"
quantity = "inhibition at 0.1 ppm"
limit_operator = "<"
numeric_result = 0

[[record]]
compound = "C[Si](C)(C)c1cccc(Cl)c1C(=O)NCc1ccco1"
quantity = "inhibition at 0.1 ppm"
limit_operator = "="
numeric_result = 75

[[record]]
compound = "CC1C=CC(C)N1C(=O)c1c(Cl)cccc1[Si](C)(C)C (centres unmarked)"
quantity = "inhibition at 0.1 ppm"
limit_operator = "<"
numeric_result = 0


Reference source for all entries: patent US6410558B1
